assay: Tmax in rat at 3 mg/kg, po; type: ADME, organism-based; conditions: in vivo
measure: Tmax (h)

smiles-entry | reading
CC(F)(F)CN1C(=O)[C@]2(C)COCCN2c2nc(-c3ccc(NC(=O)NC4CC4)cc3)ncc21 | 6.7

----------
experiment: Tmax in dog at 30 mg/kg, po; format: ADME, organism-based, Canis lupus familiaris; conditions: in vivo

smiles-entry | Tmax, h
CC(F)(F)CN1C(=O)[C@]2(C)COCCN2c2nc(-c3ccc(NC(=O)NC4CC4)cc3)ncc21 | 7.3

----------
assay: Volume of distribution at steady state in mouse at 10.4 mg/kg, iv; assay type: ADME, organism-based; details: in vivo, read-out: Vdss
measure: Vd (L/kg)

smiles-entry | unit-spec | reading
CC(F)(F)CN1C(=O)[C@]2(C)COCCN2c2nc(-c3ccc(NC(=O)NC4CC4)cc3)ncc21 | L/kg | 1.16

----------
experiment: Half-life in mouse at 2.8 mg/kg, iv; type: ADME, organism-based; details: in vivo
measure: half-life (min)

smiles-entry | reading
CC(F)(F)CN1C(=O)[C@]2(C)COCCN2c2nc(-c3ccc(NC(=O)NC4CC4)cc3)ncc21 | 162

----------
assay: Tmax in rat at 31 mg/kg, po; assay type: ADME, organism-based; settings: in vivo

smiles-entry | Tmax
CC(F)(F)CN1C(=O)[C@]2(C)COCCN2c2nc(-c3ccc(NC(=O)NC4CC4)cc3)ncc21 | 8 to 19.3 h

----------
assay: Half-life in rat at 93 mg/kg, po; assay type: ADME, organism-based; conditions: in vivo
measure: half-life (h)

smiles-entry | unit-spec | reading
CC(F)(F)CN1C(=O)[C@]2(C)COCCN2c2nc(-c3ccc(NC(=O)NC4CC4)cc3)ncc21 | h | 23.4

----------
test: Half-life in rat at 31 mg/kg, po; format: ADME, organism-based; conditions: in vivo

smiles-entry | half-life
CC(F)(F)CN1C(=O)[C@]2(C)COCCN2c2nc(-c3ccc(NC(=O)NC4CC4)cc3)ncc21 | 8.7 to 18.6 h

----------
assay: Clearance in mouse at 2.8 mg/kg, iv; format: ADME, organism-based; conditions: in vivo

smiles-entry | clearance / mL/min/kg
CC(F)(F)CN1C(=O)[C@]2(C)COCCN2c2nc(-c3ccc(NC(=O)NC4CC4)cc3)ncc21 | 8.5

----------
assay: Half-life in rat at 4.9 mg/kg, po; format: ADME, organism-based; details: in vivo

smiles-entry | half-life / h
CC(F)(F)CN1C(=O)[C@]2(C)COCCN2c2nc(-c3ccc(NC(=O)NC4CC4)cc3)ncc21 | 5.5

----------
assay: Volume of distribution at steady state in rat at 0.8 mg/kg, iv; type: ADME, organism-based; conditions: in vivo, read-out: Vdss

smiles-entry | Vd
CC(F)(F)CN1C(=O)[C@]2(C)COCCN2c2nc(-c3ccc(NC(=O)NC4CC4)cc3)ncc21 | 0.951 L/kg

----------
test: Volume of distribution at steady state in dog at 0.2 mg/kg, iv; type: ADME, organism-based, Canis lupus familiaris; settings: in vivo, read-out: Vdss

smiles-entry | Vd / L/kg
CC(F)(F)CN1C(=O)[C@]2(C)COCCN2c2nc(-c3ccc(NC(=O)NC4CC4)cc3)ncc21 | 1.12

----------
target: Phosphatidylinositol 4,5-bisphosphate 3-kinase catalytic subunit alpha isoform (Homo sapiens, UniProt P42336); test: Inhibition of PI3K alpha (unknown origin)
Sequence (P42336 whole entry, canonical isoform): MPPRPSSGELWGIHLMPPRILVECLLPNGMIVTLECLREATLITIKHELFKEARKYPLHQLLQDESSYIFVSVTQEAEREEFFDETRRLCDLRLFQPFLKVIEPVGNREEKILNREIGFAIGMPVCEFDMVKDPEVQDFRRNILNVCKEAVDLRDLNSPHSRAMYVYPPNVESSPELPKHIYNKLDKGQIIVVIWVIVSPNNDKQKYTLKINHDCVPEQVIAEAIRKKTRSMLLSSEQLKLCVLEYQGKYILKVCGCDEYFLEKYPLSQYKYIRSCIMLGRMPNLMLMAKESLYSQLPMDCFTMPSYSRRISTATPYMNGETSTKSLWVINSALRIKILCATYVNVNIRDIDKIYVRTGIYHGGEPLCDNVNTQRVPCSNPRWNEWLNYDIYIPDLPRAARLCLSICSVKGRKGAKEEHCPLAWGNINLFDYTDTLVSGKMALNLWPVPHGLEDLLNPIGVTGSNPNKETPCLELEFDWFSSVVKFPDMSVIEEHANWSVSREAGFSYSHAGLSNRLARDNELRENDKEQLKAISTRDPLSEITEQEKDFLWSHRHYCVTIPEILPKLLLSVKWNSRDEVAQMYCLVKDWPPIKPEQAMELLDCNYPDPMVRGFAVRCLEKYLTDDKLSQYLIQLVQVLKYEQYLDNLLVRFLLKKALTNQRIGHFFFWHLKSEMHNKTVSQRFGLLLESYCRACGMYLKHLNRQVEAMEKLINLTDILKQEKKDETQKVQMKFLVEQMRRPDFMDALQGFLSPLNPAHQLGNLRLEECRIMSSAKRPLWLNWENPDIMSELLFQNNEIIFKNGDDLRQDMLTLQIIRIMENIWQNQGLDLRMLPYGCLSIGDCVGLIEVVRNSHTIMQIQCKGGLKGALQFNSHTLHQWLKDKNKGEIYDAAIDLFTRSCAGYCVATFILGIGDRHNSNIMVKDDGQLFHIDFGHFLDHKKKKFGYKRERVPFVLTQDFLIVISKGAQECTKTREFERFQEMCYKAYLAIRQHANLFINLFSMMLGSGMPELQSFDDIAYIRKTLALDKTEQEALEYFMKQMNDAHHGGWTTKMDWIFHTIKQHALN
pIC50: −log10 of the molar value.
Item-by-item account of pIC50
measure: pIC50

compound | measure | reading
CC(F)(F)CN1C(=O)[C@]2(C)COCCN2c2nc(-c3ccc(NC(=O)NC4CC4)cc3)ncc21 | pIC50 | 5.90
CNC(=O)Nc1ccc(-c2ncc3c(n2)N2CCOCC2CC(=O)N3)cc1 (stereo not drawn) | pIC50 | 5.60
CNC(=O)Nc1ccc(-c2ncc3c(n2)N2CCOCC2CO3)cc1 (stereo not drawn) | pIC50 | 7.30
CNC(=O)Nc1ccc(-c2ncc3c(n2)N2CCOC[C@@]2(C)C(=O)N3CC2CC2)cc1 | pIC50 | 7.10
C[C@@]12COCCN1c1nc(-c3ccc(NC(=O)NC4CC4)cc3)ncc1N(CC1CC1)C2=O | pIC50 | 6.10
CNC(=O)Nc1ccc(-c2ncc3c(n2)N2CCOCC2C(=O)N3CC2CC2)cc1 (stereo not drawn) | pIC50 | 7.70
CNC(=O)Nc1ccc(-c2ncc3c(n2)N2CCOCC2C(=O)N3)cc1 (stereo not drawn) | pIC50 | 7.50
CNC(=O)Nc1ccc(-c2nc(C)c3nc4n(c3n2)CCOC4)cc1 | pIC50 | 5.30
